The origin of these recorded values is paper PMC4336329.

- target-or-test-system: human ether-à-go-go-related gene (hERG) potassium channel (human, UniProt Q12809)
- Sequence (Q12809 whole entry, looked up): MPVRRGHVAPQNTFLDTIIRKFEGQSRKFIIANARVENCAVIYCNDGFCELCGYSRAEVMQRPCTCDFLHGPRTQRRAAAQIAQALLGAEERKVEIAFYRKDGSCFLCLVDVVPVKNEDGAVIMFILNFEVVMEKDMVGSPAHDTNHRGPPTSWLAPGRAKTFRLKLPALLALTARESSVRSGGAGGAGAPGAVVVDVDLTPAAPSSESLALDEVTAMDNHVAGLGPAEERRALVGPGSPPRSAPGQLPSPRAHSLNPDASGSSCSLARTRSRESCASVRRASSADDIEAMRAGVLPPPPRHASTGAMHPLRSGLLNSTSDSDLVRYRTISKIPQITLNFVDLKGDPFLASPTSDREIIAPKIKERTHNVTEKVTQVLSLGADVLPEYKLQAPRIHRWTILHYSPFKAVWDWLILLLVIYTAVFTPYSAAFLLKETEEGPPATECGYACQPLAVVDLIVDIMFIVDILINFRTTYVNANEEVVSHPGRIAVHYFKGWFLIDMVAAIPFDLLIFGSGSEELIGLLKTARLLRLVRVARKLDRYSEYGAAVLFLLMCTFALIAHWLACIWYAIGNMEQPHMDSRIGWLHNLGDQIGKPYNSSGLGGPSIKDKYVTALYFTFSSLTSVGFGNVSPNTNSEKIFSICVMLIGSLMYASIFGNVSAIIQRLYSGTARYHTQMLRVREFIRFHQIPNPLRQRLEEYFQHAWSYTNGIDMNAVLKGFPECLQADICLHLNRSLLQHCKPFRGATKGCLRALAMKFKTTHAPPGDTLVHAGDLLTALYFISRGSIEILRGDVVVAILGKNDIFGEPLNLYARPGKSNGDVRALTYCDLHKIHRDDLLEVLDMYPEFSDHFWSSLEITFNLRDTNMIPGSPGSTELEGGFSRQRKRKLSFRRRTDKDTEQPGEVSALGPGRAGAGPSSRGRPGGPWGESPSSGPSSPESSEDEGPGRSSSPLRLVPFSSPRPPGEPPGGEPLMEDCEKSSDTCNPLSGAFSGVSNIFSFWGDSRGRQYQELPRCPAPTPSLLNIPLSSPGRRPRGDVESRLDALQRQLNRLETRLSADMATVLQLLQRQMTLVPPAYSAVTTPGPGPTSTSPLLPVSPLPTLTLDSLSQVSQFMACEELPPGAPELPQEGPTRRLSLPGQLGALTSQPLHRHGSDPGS
- assay-procedure: primary screen, population patch clamp on CHO cells stably expressing hERG; higher = less effect of the substance
Hit rate of the full screen: of about 310,000 compounds, about 2,200 (0.71%) showed an effect of 50% or more. The effect is printed as a negative number. Shown is part of a subset that was picked to be rich in strong results.
value-kind: hERG current change (%, negative = inhibition) at 1uM (%)

[
  {
    "compound": "O=C(Nc1ccccc1)C1CCCN1/C=C/C(=O)C(F)(F)F (stereo not shown)",
    "target-or-test-system": "human ether-à-go-go-related gene (hERG) potassium channel (human, UniProt Q12809)",
    "measured-number": 2.92
  },
  {
    "compound": "CNC(=S)NNC(=O)c1sc2cc(C(F)(F)F)cnc2c1-c1ccccn1",
    "target-or-test-system": "human ether-à-go-go-related gene (hERG) potassium channel (human, UniProt Q12809)",
    "measured-number": 4.79
  },
  {
    "compound": "CN1CCN(Cc2ccccc2Sc2ccccc2)CC1.O=C(O)/C=C\\C(=O)O",
    "target-or-test-system": "human ether-à-go-go-related gene (hERG) potassium channel (human, UniProt Q12809)",
    "measured-number": -68.1
  },
  {
    "compound": "N#Cc1c2c(c(Nc3ccc(O)cc3)n3c1nc1ccccc13)CCC2",
    "target-or-test-system": "human ether-à-go-go-related gene (hERG) potassium channel (human, UniProt Q12809)",
    "measured-number": 11.7
  },
  {
    "compound": "O=C(O)/C=C\\C(=O)O.c1ccc(Sc2ccccc2CN2CCCC2)cc1",
    "target-or-test-system": "human ether-à-go-go-related gene (hERG) potassium channel (human, UniProt Q12809)",
    "measured-number": -11.3
  },
  {
    "compound": "CNC(C)Cc1ccccc1Sc1ccc(O)cc1.Cl (stereo not shown)",
    "target-or-test-system": "human ether-à-go-go-related gene (hERG) potassium channel (human, UniProt Q12809)",
    "measured-number": -21.1
  },
  {
    "compound": "CC(Cc1ccccc1Sc1ccc(O)cc1)N(C)C.CCO.Cl (stereo not shown)",
    "target-or-test-system": "human ether-à-go-go-related gene (hERG) potassium channel (human, UniProt Q12809)",
    "measured-number": -73.1
  },
  {
    "compound": "O=C(CSc1nnc(NC(=O)c2ccc(F)cc2F)s1)NC1CC1",
    "target-or-test-system": "human ether-à-go-go-related gene (hERG) potassium channel (human, UniProt Q12809)",
    "measured-number": 14.9
  },
  {
    "compound": "CC(C)COC(=O)NC1c2ccccc2Oc2ccccc21",
    "target-or-test-system": "human ether-à-go-go-related gene (hERG) potassium channel (human, UniProt Q12809)",
    "measured-number": -2.38
  },
  {
    "compound": "Cc1ccccc1Nc1nc(N)nc(COC(=O)c2cccc(S(=O)(=O)N(C)C)c2)n1",
    "target-or-test-system": "human ether-à-go-go-related gene (hERG) potassium channel (human, UniProt Q12809)",
    "measured-number": 8.43
  }
]
